test system: HOP-92; experiment: NCI-60 SRB assay, HOP-92 (NSCLC); assay type: cell-based, human; details: 10 µM, 48 h, growth vs untreated control
Examples of compounds with documented G% follow.
readout.label: G%

1) C[C@@H]1NC(c2ccc(Br)cc2)=Nc2nc3ccccn3c2C1=O
59,48%
2) C[C@@H]1NC(c2csc3ccccc23)=Nc2nc3ccccn3c2C1=O
40,26%
3) C[C@@H]1NC(c2ccc(N=[N+]=[N-])cc2)=Nc2nc3ccccn3c2C1=O
102,26%
4) [N-]=[N+]=NCCCC[C@@H]1NC(c2ccc(Br)cc2)=Nc2nc3ccccn3c2C1=O
102,82%

* * *

tested on: MDA-MB-435 melanoma cells; assay: Neutral red uptake (NRU) viability assay, MDA-MB-435; type: cell-based, human; details: NRU assay, up to 40 µM
readout.label: cytotoxic activity on MDA-MB-435 (in words)

1. [N-]=[N+]=NCCCC[C@@H]1NC(c2ccccc2)=Nc2nc3ccccn3c2C1=O [Compound 18]
totally inactive
2. C[C@@H]1NC(c2c[nH]c3ccccc23)=Nc2nc3ccccn3c2C1=O [9′]
totally inactive
3. C[C@@H]1NC(c2ccc(C(=O)c3ccccc3)cc2)=Nc2nc3ccccn3c2C1=O [Compound 6]
totally inactive

* * *

In this section, each of the molecules is paired with its reported Mean G% - G%.
test system: IGROV1; assay: NCI-60 SRB assay, IGROV1 (Ovarian Cancer); type: cell-based, human; settings: 10 µM, 48 h
readout.label: Mean G% - G%

1. [N-]=[N+]=NCCCC[C@@H]1NC(c2ccc(Br)cc2)=Nc2nc3ccccn3c2C1=O
70,16%
2. C[C@@H]1NC(c2ccc(Br)cc2)=Nc2nc3ccccn3c2C1=O
11,16%
3. C[C@@H]1NC(c2ccc(N=[N+]=[N-])cc2)=Nc2nc3ccccn3c2C1=O
10,76%
4. C[C@@H]1NC(c2csc3ccccc23)=Nc2nc3ccccn3c2C1=O
14,89%

* * *

tested on: COLO 205; experiment: NCI-60 SRB assay, COLO 205 (Colon Cancer); assay type: cell-based, human; conditions: 10 µM, 48 h
readout.label: Mean G% - G%

1. C[C@@H]1NC(c2csc3ccccc23)=Nc2nc3ccccn3c2C1=O
-25,43%
2. C[C@@H]1NC(c2ccc(Br)cc2)=Nc2nc3ccccn3c2C1=O
27,91%
3. C[C@@H]1NC(c2ccc(N=[N+]=[N-])cc2)=Nc2nc3ccccn3c2C1=O
5,95%
4. [N-]=[N+]=NCCCC[C@@H]1NC(c2ccc(Br)cc2)=Nc2nc3ccccn3c2C1=O
-15,42%

* * *

Listed here: items and their measured Mean G% - G%.
tested on: HOP-92; experiment: NCI-60 SRB assay, HOP-92 (NSCLC); format: cell-based, human; conditions: 10 µM, 48 h;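 as to Mean G% - G%: mean growth across the NCI-60 panel minus this line's growth with positive meaning more sensitive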
readout.label: Mean G% - G%

1) [N-]=[N+]=NCCCC[C@@H]1NC(c2ccc(Br)cc2)=Nc2nc3ccccn3c2C1=O
-11,05%
2) C[C@@H]1NC(c2ccc(N=[N+]=[N-])cc2)=Nc2nc3ccccn3c2C1=O
-17,00%
3) C[C@@H]1NC(c2ccc(Br)cc2)=Nc2nc3ccccn3c2C1=O
-5,24%
4) C[C@@H]1NC(c2csc3ccccc23)=Nc2nc3ccccn3c2C1=O
34,61%

* * *

system: A498; assay: NCI-60 SRB assay, A498 (Renal Cancer); assay type: cell-based, human; conditions: 10 µM, 48 h, growth vs untreated control
readout.label: G%

1) C[C@@H]1NC(c2ccc(N=[N+]=[N-])cc2)=Nc2nc3ccccn3c2C1=O
99,42%
2) C[C@@H]1NC(c2csc3ccccc23)=Nc2nc3ccccn3c2C1=O
61,33%
3) C[C@@H]1NC(c2ccc(Br)cc2)=Nc2nc3ccccn3c2C1=O
69,88%
4) [N-]=[N+]=NCCCC[C@@H]1NC(c2ccc(Br)cc2)=Nc2nc3ccccn3c2C1=O
82,87%

* * *

Entries and their Mean G% - G% values follow.
tested on: KM12; assay: NCI-60 SRB assay, KM12 (Colon Cancer); format: cell-based, human; details: 10 µM, 48 h
readout.label: Mean G% - G%

1) C[C@@H]1NC(c2ccc(Br)cc2)=Nc2nc3ccccn3c2C1=O
24,69%
2) C[C@@H]1NC(c2csc3ccccc23)=Nc2nc3ccccn3c2C1=O
4,90%
3) [N-]=[N+]=NCCCC[C@@H]1NC(c2ccc(Br)cc2)=Nc2nc3ccccn3c2C1=O
10,11%
4) C[C@@H]1NC(c2ccc(N=[N+]=[N-])cc2)=Nc2nc3ccccn3c2C1=O
27,28%

* * *

readout.label: melting point

1) C[C@@H]1NC(c2c[nH]c3ccccc23)=Nc2nc3ccccn3c2C1=O
164.5 to 165.5 °C
2) C[C@@H]1NC(c2cn(C(=O)OC(C)(C)C)c3ccccc23)=Nc2nc3ccccn3c2C1=O
155 to 157 °C
3) C[C@@H]1NC(c2csc3ccccc23)=Nc2nc3ccccn3c2C1=O
135 to 137 °C
4) O=C(C[C@@H]1NC(c2ccc(Br)cc2)=Nc2nc3ccccn3c2C1=O)OCc1ccccc1
72.5 to 73.5 °C
5) C[C@@H]1NC(c2ccc3ncccc3c2)=Nc2nc3ccccn3c2C1=O
165 to 166 °C
6) C[C@@H]1NC(c2ccc(N=[N+]=[N-])cc2)=Nc2nc3ccccn3c2C1=O
235 to 236 °C (dec.)
7) C#Cc1ccc(C2=Nc3nc4ccccn4c3C(=O)[C@H](C)N2)cc1
128 to 129 °C

* * *

system: ACHN; assay: NCI-60 SRB assay, ACHN (Renal Cancer); format: cell-based, human; settings: 10 µM, 48 h
readout.label: Mean G% - G%

1. [N-]=[N+]=NCCCC[C@@H]1NC(c2ccc(Br)cc2)=Nc2nc3ccccn3c2C1=O
3,57%
2. C[C@@H]1NC(c2ccc(Br)cc2)=Nc2nc3ccccn3c2C1=O
-14,97%
3. C[C@@H]1NC(c2csc3ccccc23)=Nc2nc3ccccn3c2C1=O
-4,72%
4. C[C@@H]1NC(c2ccc(N=[N+]=[N-])cc2)=Nc2nc3ccccn3c2C1=O
0,49%

* * *

test system: IGROV1; test: NCI-60 SRB assay, IGROV1 (Ovarian Cancer); assay type: cell-based, human; conditions: 10 µM, 48 h, growth vs untreated control
readout.label: G%

1. C[C@@H]1NC(c2csc3ccccc23)=Nc2nc3ccccn3c2C1=O
59,98%
2. [N-]=[N+]=NCCCC[C@@H]1NC(c2ccc(Br)cc2)=Nc2nc3ccccn3c2C1=O
21,61%
3. C[C@@H]1NC(c2ccc(N=[N+]=[N-])cc2)=Nc2nc3ccccn3c2C1=O
74,50%
4. C[C@@H]1NC(c2ccc(Br)cc2)=Nc2nc3ccccn3c2C1=O
43,08%

* * *

The following compounds are shown together with reported Mean G% - G% values.
system: T-47D; assay: NCI-60 SRB assay, T-47D (Breast Cancer); type: cell-based, human; details: 10 µM, 48 h
readout.label: Mean G% - G%

1) C[C@@H]1NC(c2ccc(Br)cc2)=Nc2nc3ccccn3c2C1=O
-12,99%
2) C[C@@H]1NC(c2ccc(N=[N+]=[N-])cc2)=Nc2nc3ccccn3c2C1=O
8,29%
3) [N-]=[N+]=NCCCC[C@@H]1NC(c2ccc(Br)cc2)=Nc2nc3ccccn3c2C1=O
10,17%
4) C[C@@H]1NC(c2csc3ccccc23)=Nc2nc3ccccn3c2C1=O
28,96%

* * *

system: HS 578T; test: NCI-60 SRB assay, HS 578T (Breast Cancer); type: cell-based, human; conditions: 10 µM, 48 h, growth vs untreated control
readout.label: G%

1) C[C@@H]1NC(c2csc3ccccc23)=Nc2nc3ccccn3c2C1=O
59,47%
2) [N-]=[N+]=NCCCC[C@@H]1NC(c2ccc(Br)cc2)=Nc2nc3ccccn3c2C1=O
93,28%
3) C[C@@H]1NC(c2ccc(N=[N+]=[N-])cc2)=Nc2nc3ccccn3c2C1=O
96,21%
4) C[C@@H]1NC(c2ccc(Br)cc2)=Nc2nc3ccccn3c2C1=O
71,34%

* * *

tested on: COLO 205; assay: NCI-60 SRB assay, COLO 205 (Colon Cancer); format: cell-based, human; conditions: 10 µM, 48 h, growth vs untreated control
Below is a list of entries, each paired with its recorded G% value.
readout.label: G%

1. C[C@@H]1NC(c2csc3ccccc23)=Nc2nc3ccccn3c2C1=O [Compound 8]
100,30%
2. C[C@@H]1NC(c2ccc(Br)cc2)=Nc2nc3ccccn3c2C1=O [JMV5038]
26,33%
3. C[C@@H]1NC(c2ccc(N=[N+]=[N-])cc2)=Nc2nc3ccccn3c2C1=O [Compound 5]
79,31%
4. [N-]=[N+]=NCCCC[C@@H]1NC(c2ccc(Br)cc2)=Nc2nc3ccccn3c2C1=O [Compound 16]
107,19%

* * *

test system: SNB-75; assay: NCI-60 SRB assay, SNB-75 (CNS Cancer); assay type: cell-based, human; details: 10 µM, 48 h, growth vs untreated control
readout.label: G%

1. [N-]=[N+]=NCCCC[C@@H]1NC(c2ccc(Br)cc2)=Nc2nc3ccccn3c2C1=O [Compound 16]
87,65%
2. C[C@@H]1NC(c2csc3ccccc23)=Nc2nc3ccccn3c2C1=O [Compound 8]
14,51%
3. C[C@@H]1NC(c2ccc(Br)cc2)=Nc2nc3ccccn3c2C1=O [JMV5038]
50,16%
4. C[C@@H]1NC(c2ccc(N=[N+]=[N-])cc2)=Nc2nc3ccccn3c2C1=O [Compound 5]
70,35%
